- System: Hep3B cell
- TEST_NAME: Toxicity test of drugs, Hep3B cell cultured in microtiter plate (2D monolayer in 96-wells)
- Type: cell-based
- MEASUREMENT_SETUP: read-out: IC50 (concentration of drug when 50% of cells shows the growth inhibition), Microtiter Plate (2D Hep3B cell monolayer in 96-wells), drug cultured for a day
# IC50 listing for each entry below
Return type: number; implicit unit µM.

COMPOUND: O=C(O)Cc1ccccc1Nc1c(Cl)cccc1Cl
VALUE_KIND: IC50
MEASUREMENT_UNITS: µM
RECORDED_VALUE: 230
//
COMPOUND: CCN(CC)CCCC(C)Nc1ccnc2cc(Cl)ccc12 (centres unmarked)
VALUE_KIND: IC50
MEASUREMENT_UNITS: µM
RECORDED_VALUE: 50
//
COMPOUND: CCN(CC)C(=O)/C(C#N)=C/c1cc(O)c(O)c([N+](=O)[O-])c1
VALUE_KIND: IC50
MEASUREMENT_UNITS: µM
RECORDED_VALUE: 850

query: Query: IC50; subject: Cc1ccc(C(=O)c2cc(O)c(O)c([N+](=O)[O-])c2)cc1
result: 50

query: Next record, please: CO[C@@]12[C@H](COC(N)=O)C3=C(C(=O)C(C)=C(N)C3=O)N1C[C@@H]1N[C@@H]12
result: 40
